Test system: H929 cells
TEST_PROTOCOL: Cell viability assay (H929 10 FBS)
Assay type: cell-based
CONDITION_DETAILS: Homo sapiens, NCI-H929, 24 hours, read-out: H929_10FBS IC50
PROPERTY_MEASURED: IC50

{"CHEMICAL_STRUCTURE": "CN(C)CCN(C)C(=O)O[C@H]1/C=C/COC(C)(C)C(=O)NS(=O)(=O)c2ccc3c(c2)N(C[C@@H]2CC[C@H]21)C[C@@]1(CCOc2cc(Cl)ccc21)CO3", "SUBJECT_OF_TEST": "H929 cells", "IC50": "< 500 nM"}
{"CHEMICAL_STRUCTURE": "CN(C(=O)O[C@H]1/C=C/CN(C)C2(CCC2)C(=O)NS(=O)(=O)c2ccc3c(c2)N(C[C@@H]2CC[C@H]21)C[C@@]1(CCCc2cc(Cl)ccc21)CO3)C1COC1", "SUBJECT_OF_TEST": "H929 cells", "IC50": "< 500 nM"}

Query compound follows.
Exercise: Recorded IC50 for COCCN(C)C(=O)O[C@H]1/C=C/COC(C)(C)C(=O)NS(=O)(=O)c2ccc3c(c2)N(C[C@@H]2CC[C@H]21)C[C@@]1(CCCc2cc(Cl)ccc21)CO3 , please?
Solution: < 500 nM

###

Test system: H929 cells
TEST_PROTOCOL: Cell viability assay (H929 10 FBS)
Assay type: cell-based
CONDITION_DETAILS: Homo sapiens, NCI-H929, 24 hours, read-out: H929_10FBS IC50
PROPERTY_MEASURED: IC50

Illustrative cases are given below, each with its answer.
{"MOLECULE": "CC(=O)NS(=O)(=O)c1ccc2c(c1)N(CC1CCCCC1)CC1(CCCc3cc(Cl)ccc31)CO2 (stereo not shown) [Example 3]", "SUBJECT_OF_TEST": "H929 cells", "RESULT": "> 1000 nM"}
{"MOLECULE": "CN(C(=O)O[C@H]1/C=C/CN(C)C(C)(C)C(=O)NS(=O)(=O)c2ccc3c(c2)N(C[C@@H]2CC[C@H]21)C[C@@]1(CCCc2cc(Cl)ccc21)CO3)[C@@H]1CCOC1 [Example 218]", "SUBJECT_OF_TEST": "H929 cells", "RESULT": "< 500 nM"}
{"MOLECULE": "CN(C)C(=O)CO[C@@H]1/C=C/COC2(CC2)C(=O)NS(=O)(=O)c2ccc3c(c2)N(C[C@@H]2CC[C@H]21)C[C@@]1(CCCc2cc(Cl)ccc21)CO3 [Example 143]", "SUBJECT_OF_TEST": "H929 cells", "RESULT": "< 500 nM"}
{"MOLECULE": "CN1C/C=C/[C@H](OC(=O)N2CCN3CCOCC3C2)[C@@H]2CC[C@H]2CN2C[C@@]3(CCCc4cc(Cl)ccc43)COc3ccc(cc32)S(=O)(=O)NC(=O)C1(C)C (stereo in doubt) [Example 208]", "SUBJECT_OF_TEST": "H929 cells", "RESULT": "< 500 nM"}
{"MOLECULE": "C=CCCCC(=O)NS(=O)(=O)c1ccc2c(c1)N(Cc1cnn(CC=C)c1)CC1(CCCc3cc(Cl)ccc31)CO2 (stereo not shown) [Example 10]", "SUBJECT_OF_TEST": "H929 cells", "RESULT": "> 1000 nM"}
{"MOLECULE": "CC(=O)NS(=O)(=O)c1ccc2c(c1)N(CC1C[C@@H](C)O[C@@H](C)C1)CC1(CCCc3cc(Cl)ccc31)CO2 (mixture of isomers) [Example 8]", "SUBJECT_OF_TEST": "H929 cells", "RESULT": "> 1000 nM"}
{"MOLECULE": "CN(C)C(=O)O[C@@]1(C)/C=C/COC(C)(C)C(=O)NS(=O)(=O)c2ccc3c(c2)N(C[C@@H]2CC[C@H]21)C[C@@]1(CCCc2cc(Cl)ccc21)CO3 [Example 293]", "SUBJECT_OF_TEST": "H929 cells", "RESULT": "< 500 nM"}
{"MOLECULE": "CO[C@@H]1/C=C/CCNC(=O)NS(=O)(=O)c2ccc3c(c2)N(C[C@@H]2CC[C@H]21)C[C@@]1(CCCc2cc(Cl)ccc21)CO3 [Example 106]", "SUBJECT_OF_TEST": "H929 cells", "RESULT": "< 1000 nM"}
{"MOLECULE": "CCN1C/C=C/[C@H](O)[C@@H]2CC[C@H]2CN2C[C@@]3(CCCc4cc(Cl)ccc43)COc3ccc(cc32)S(=O)(=O)NC(=O)C1(C)C [Example 219]", "SUBJECT_OF_TEST": "H929 cells", "RESULT": "< 500 nM"}
{"MOLECULE": "CO[C@@H]1/C=C/C[C@H](C)[C@@H](CC(=O)N2CCOCC2)C(=O)NS(=O)(=O)c2ccc3c(c2)N(C[C@@H]2CC[C@H]21)C[C@@]1(CCCc2cc(Cl)ccc21)CO3 [Example 92]", "SUBJECT_OF_TEST": "H929 cells", "RESULT": "< 1000 nM"}

Exercise: Recorded IC50 for CO[C@@H]1/C=C/CN(C(C)=O)[C@H](C)C(=O)NS(=O)(=O)c2ccc3c(c2)N(C[C@@H]2CC[C@H]21)C[C@@]1(CCCc2cc(Cl)ccc21)CO3 [Example 133] , please?
Solution: > 1000 nM

Exercise: Recorded IC50 for CN1C/C=C/[C@H](O)[C@@H]2CC[C@H]2CN2C[C@@]3(CCCc4cc(Cl)ccc43)COc3ccc(cc32)S(=O)(=O)NC(=O)C1(C)C [Example 43] , please?
Solution: > 1000 nM

Exercise: Recorded IC50 for CC1(C)OC/C=C/[C@H](O)[C@@H]2CC[C@H]2CN2C[C@]3(COc4ccc(cc42)S(=O)(=O)NC1=O)OCCc1cc(Cl)ccc13 [Example 249] , please?
Solution: > 1000 nM

Exercise: Recorded IC50 for CN1CC[C@@H](NC(=O)O[C@H]2/C=C/COC(C)(C)C(=O)NS(=O)(=O)c3ccc4c(c3)N(C[C@@H]3CC[C@H]32)C[C@@]2(CCCc3cc(Cl)ccc32)CO4)C1 [Example 152] , please?
Solution: < 500 nM

Exercise: Recorded IC50 for CN(C(=O)O[C@H]1/C=C/COC(C)(C)C(=O)NS(=O)(=O)c2ccc3c(c2)N(C[C@@H]2CC[C@H]21)C[C@@]1(CCCc2cc(Cl)ccc21)CO3)[C@@H]1CCOC1 [Example 64] , please?
Solution: < 500 nM

Exercise: Recorded IC50 for CN(C)C(=O)OC1CCCOC(C)(C)C(=O)NS(=O)(=O)c2ccc3c(c2)N(C[C@@H]2CC[C@@H]12)C[C@@]1(CCCc2cc(Cl)ccc21)CO3 (stereo partly shown) [Example 286] , please?
Solution: > 1000 nM
